# System: CASK
# measurement parameters: concentration: 1 μM, replicates: in singlicate; n = 1
quantity: %Inh (%)
Number in %, nothing else.

| compound | observed result |
| --- | --- |
| Cc1ccc(NC(=O)Nc2cc(C(C)(C)C)nn2-c2ccccc2)cc1 | 12 |
| Cc1cccc(-c2nc(-c3ccc(S(C)(=O)=O)cc3)sc2-c2ccnc(NCCc3ccccc3)c2)c1 | 18 |
| COc1ccc(C2=C(Nc3cccc(C(=O)O)c3)C(=O)NC2=O)cc1 | 15 |
| NC(=O)c1nnc2ccccc2c1N | 36 |
| Cl.O=C(Nc1cccc(-c2nn3ncccc3c2-c2ccnc(Nc3cccnc3)n2)c1)c1c(F)cccc1F | 22 |

Return %Inh (reported value) for this compound: COc1cc2ncn(-c3cc(OCC4CCCO4)c(C(N)=O)s3)c2cc1OC (stereo not shown)
0

Return %Inh (reported value) for this compound: COc1cc2ncnc(Nc3ccc4nc(-c5ccccc5)[nH]c4c3)c2cc1OC.Cl
25

###

Measured %Inh values are reported for all entries that follow.
# Tested on: ACVR1B
# measurement parameters: concentration: 1 μM, replicates: in singlicate; n = 1
Number in %, nothing else.

| compound | observed result |
| --- | --- |
| Cc1cccc(-c2cc(Nc3ccncc3)c3ccccc3n2)n1 | 88 |
| O=C(Nc1n[nH]c2nc(-c3nccs3)c(Br)cc12)C1CCCC1 | 0 |
| COc1cccc(NC(=O)NC2CCN(c3ccnc(Nc4ccc(F)cc4)n3)C2)c1 (stereo not drawn) | 0 |

Return %Inh (reported value) for this compound: Nc1ncnc2[nH]c(-c3ccccc3)nc12
0

Return %Inh (reported value) for this compound: Cc1cccc(-c2nc(Nc3cccc(C(N)=O)c3)c3ccccc3n2)n1
83

Return %Inh (reported value) for this compound: CSc1nn2c(=O)cc(N3CCOCC3)nc2n1Cc1cccc(C(F)(F)F)c1C
0

###

The following molecules each carry a recorded Kd for CSNK1E.
Number in nM, nothing else.

| molecule | assay target | Kd [nM] |
| --- | --- | --- |
| CC(C)(C)c1ccc(C(=O)Nc2cn3cc(-c4cccnc4)ccc3n2)cc1 | CSNK1E | 110 |

Return Kd (reported value) for this molecule: CN(C)CCN(C)C(=O)c1cc(-c2ccncc2)c(-c2ccc(Cl)c(O)c2)o1.Cl.Cl [SB-710397]
410

###

Measured %Inh values are reported for all entries that follow.
# System: AKT1
# measurement parameters: concentration: 1 μM, replicates: in singlicate; n = 1
Number in %, nothing else.

Here are 4 compounds together with their reported answers.
| molecule smiles | observed result |
| --- | --- |
| O=C(Nc1ccccc1)Nc1cccc(Oc2ccc3nccn3n2)c1 | 32 |
| Cc1ccc(NC(=O)Nc2cc(C(C)(C)C)nn2-c2ccccc2)cc1 | 0 |
| Cc1cc(-c2ccc3c(c2)CC[C@@H](N[C@@H](C)c2ccccc2)C3)cnc1N.Cl | 0 |
| NC(=O)c1nnc2ccccc2c1N | 7 |

Return %Inh (reported value) for this compound: Cc1cc(N2Cc3ccccc3C2)nc(Nc2ccc(S(=O)(=O)N3CCOCC3)cc2)n1.Cl
96.3

Return %Inh (reported value) for this compound: CS(=O)(=O)c1ccc(-c2nc3n(c2-c2ccncc2)CCC3)cc1
0

Return %Inh (reported value) for this compound: CC(=O)Nc1nc2cnc(Nc3cc(NC(=O)c4cccc(CCC#N)c4)ccc3C)nc2s1
17

Return %Inh (reported value) for this compound: Fc1cc(Cl)ccc1Nc1ccnc2cc(I)ccc12
0

Return %Inh (reported value) for this compound: O=C(Nc1n[nH]c2cc(-c3cccc(F)c3F)ccc12)C1CC1
0
